Each recorded value in this set is attributed to patent US20100227853A1.

For each entry below, report its Composite Z score, PDE4A5 value.
measurementTarget: PDE4A5 (Rattus norvegicus, UniProt P54748)
Construct: targets used in the assays are full-length proteins (as opposed to simply the catalytic domain); expressed in transfected cells; host or cells: Schizosaccharomyces pombe, PDE gene integrated in place of cgs2
Sequence (P54748 whole entry, the tested form may be a part): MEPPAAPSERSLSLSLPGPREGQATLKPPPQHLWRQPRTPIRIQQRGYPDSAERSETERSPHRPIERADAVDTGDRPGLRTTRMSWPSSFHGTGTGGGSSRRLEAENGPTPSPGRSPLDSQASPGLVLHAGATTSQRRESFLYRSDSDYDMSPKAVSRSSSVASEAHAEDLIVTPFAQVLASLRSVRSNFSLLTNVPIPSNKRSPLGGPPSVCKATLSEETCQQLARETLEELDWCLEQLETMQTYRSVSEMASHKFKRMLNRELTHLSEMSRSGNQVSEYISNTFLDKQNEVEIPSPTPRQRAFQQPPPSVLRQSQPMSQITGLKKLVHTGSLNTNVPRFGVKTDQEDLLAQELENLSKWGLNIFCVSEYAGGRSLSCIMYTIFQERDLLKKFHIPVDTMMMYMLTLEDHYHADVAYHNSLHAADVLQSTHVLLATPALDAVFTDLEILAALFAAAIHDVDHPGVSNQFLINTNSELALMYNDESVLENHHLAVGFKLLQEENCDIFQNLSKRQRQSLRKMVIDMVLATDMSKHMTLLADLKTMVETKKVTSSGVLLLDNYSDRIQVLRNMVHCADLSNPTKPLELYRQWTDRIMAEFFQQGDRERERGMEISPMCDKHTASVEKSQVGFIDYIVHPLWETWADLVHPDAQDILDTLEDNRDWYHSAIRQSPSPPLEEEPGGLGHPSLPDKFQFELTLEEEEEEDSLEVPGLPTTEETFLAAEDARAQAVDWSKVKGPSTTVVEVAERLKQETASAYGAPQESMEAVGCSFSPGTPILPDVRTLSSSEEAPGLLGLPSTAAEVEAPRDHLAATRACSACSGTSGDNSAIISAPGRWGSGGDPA
assayOverview: 5FOA growth assay in fission yeast strain expressing PDE4A5
Type: cell-based
cond: high throughput 5FOA growth screen

## Input Form field: reported Composite Z score, PDE4A5 of c1csc(CCNc2ncnc3sc4c(c23)CCC4)c1
## Output −0.574

## Input Form field: reported Composite Z score, PDE4A5 of CCC1CCc2c(sc3ncnc(N4CCOCC4)c23)C1 (centres unmarked)
## Output 36.026

## Input Form field: reported Composite Z score, PDE4A5 of CCN(CC)c1ncnc2sc3c(c12)CCCC3
## Output 63.222

## Input Form field: reported Composite Z score, PDE4A5 of CCN(CC)c1ncnc2sc(C(=O)N(C)C3CCCCC3)c(C)c12
## Output −0.227

## Input Form field: reported Composite Z score, PDE4A5 of CCN(CC)c1nc(C)nc2sc(C(=O)N3CCCCCC3)c(C)c12
## Output −0.705

---

measurementTarget: PDE4A5 (Rattus norvegicus)
Construct: targets used in the assays are full-length proteins (as opposed to simply the catalytic domain); expressed in transfected cells; host or cells: Schizosaccharomyces pombe, PDE gene integrated in place of cgs2
assayOverview: 5FOA growth assay in fission yeast strain expressing PDE4A5
Type: cell-based
cond: high throughput 5FOA growth screen
The threshold is 0.6. Values of Composite Z score, PDE4A5 beneath it are tagged Met; values meeting or exceeding it are tagged Not met.

## Input For this compound, is Composite Z score, PDE4A5 lower than 0.6? CCOC(=O)c1sc2nc(C)nc(N3CCC(C)CC3)c2c1C
## Output Met

## Input For this compound, is Composite Z score, PDE4A5 lower than 0.6? COc1ccccc1CNC(=O)c1sc2ncnc(N3CCN(c4ccccc4F)CC3)c2c1C
## Output Not met

## Input For this compound, is Composite Z score, PDE4A5 lower than 0.6? CC1CC(=O)N(c2ncnc3sc4c(c23)CCCC4)N1 (stereo not drawn)
## Output Met

## Input For this compound, is Composite Z score, PDE4A5 lower than 0.6? CCNc1nc(SCc2ccc(Cl)cc2)nc2sc3c(c12)CCN(C)C3
## Output Not met

## Input For this compound, is Composite Z score, PDE4A5 lower than 0.6? CCOC(CNc1nc(C)nc2sc3c(c12)CCCC3)OCC
## Output Met

## Input For this compound, is Composite Z score, PDE4A5 lower than 0.6? COc1cccc(NC(=O)c2sc3ncnc(N4CCc5ccccc5C4)c3c2C)c1
## Output Not met

## Input For this compound, is Composite Z score, PDE4A5 lower than 0.6? O=C(O)CCNc1ncnc2sc3c(c12)CCCC3
## Output Met

## Input For this compound, is Composite Z score, PDE4A5 lower than 0.6? Cc1c(C(=O)Nc2ccc(F)cc2F)sc2ncnc(N(C)c3ccccc3)c12
## Output Not met

## Input For this compound, is Composite Z score, PDE4A5 lower than 0.6? CCC(C)NC(=O)c1sc2nc(C)nc(N(C)c3ccc(C(C)C)cc3)c2c1C (stereo not drawn)
## Output Not met

---

measurementTarget: PDE4A5 (Rattus norvegicus)
Construct: targets used in the assays are full-length proteins (as opposed to simply the catalytic domain); expressed in transfected cells; host or cells: Schizosaccharomyces pombe, PDE gene integrated in place of cgs2
assayOverview: 5FOA growth assay in fission yeast strain expressing PDE4A5
Format: cell-based
cond: 20 uM; PDE 4A5
Kindly return Yes if reported 1 Assay (20 uM) 4A5 is no lower than 60 ND ND ND ND; return No if it is lower.

## Input Determine whether measured 1 Assay (20 uM) 4A5 meets or exceeds 60 ND ND ND ND for CCCCn1c2ccccc2c2nc3ccccc3nc21
## Output Yes

## Input Determine whether measured 1 Assay (20 uM) 4A5 meets or exceeds 60 ND ND ND ND for CC(C)Cn1c2ccc(Br)cc2c2nc3ccccc3nc21
## Output No

## Input Determine whether measured 1 Assay (20 uM) 4A5 meets or exceeds 60 ND ND ND ND for C=Cn1c2ccccc2c2nc3ccccc3nc21
## Output Yes

## Input Determine whether measured 1 Assay (20 uM) 4A5 meets or exceeds 60 ND ND ND ND for CCc1ccc2c(c1)c1nc3ccccc3nc1n2CC
## Output No

## Input Determine whether measured 1 Assay (20 uM) 4A5 meets or exceeds 60 ND ND ND ND for c1ccc(CCn2c3ccccc3c3nc4ccccc4nc32)cc1
## Output No

## Input Determine whether measured 1 Assay (20 uM) 4A5 meets or exceeds 60 ND ND ND ND for C=CCn1c2ccc(Br)cc2c2nc3ccccc3nc21
## Output Yes

---

measurementTarget: PDE4B3 (Mus musculus)
Construct: targets used in the assays are full-length proteins (as opposed to simply the catalytic domain); expressed in transfected cells; host or cells: Schizosaccharomyces pombe, PDE gene integrated in place of cgs2
Sequence (Q8VBU5 1-721): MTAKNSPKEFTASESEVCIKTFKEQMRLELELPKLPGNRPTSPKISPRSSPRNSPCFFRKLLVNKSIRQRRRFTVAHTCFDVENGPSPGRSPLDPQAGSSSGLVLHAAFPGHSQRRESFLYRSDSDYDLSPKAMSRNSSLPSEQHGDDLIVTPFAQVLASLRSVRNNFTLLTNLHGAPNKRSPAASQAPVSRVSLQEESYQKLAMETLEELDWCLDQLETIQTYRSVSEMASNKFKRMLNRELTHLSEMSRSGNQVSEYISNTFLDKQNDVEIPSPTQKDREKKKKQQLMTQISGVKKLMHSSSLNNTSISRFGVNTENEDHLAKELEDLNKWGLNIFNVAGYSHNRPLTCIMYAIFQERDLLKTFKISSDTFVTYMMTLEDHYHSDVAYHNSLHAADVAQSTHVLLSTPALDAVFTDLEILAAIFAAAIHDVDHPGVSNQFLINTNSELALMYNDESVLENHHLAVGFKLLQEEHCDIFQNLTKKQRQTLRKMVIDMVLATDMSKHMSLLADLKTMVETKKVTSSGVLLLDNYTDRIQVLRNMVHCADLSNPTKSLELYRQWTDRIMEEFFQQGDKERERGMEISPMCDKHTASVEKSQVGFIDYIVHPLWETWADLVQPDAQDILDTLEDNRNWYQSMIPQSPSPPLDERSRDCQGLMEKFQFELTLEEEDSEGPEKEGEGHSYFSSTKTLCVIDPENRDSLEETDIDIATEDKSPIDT
assayOverview: 5FOA growth assay in fission yeast strain expressing PDE4B3
Assay type: cell-based, Murine
cond: 20 uM; PDE 4B3
The threshold is 40 ND ND ND ND. Values of 1 Assay (20 uM) 4B3 beneath it are tagged rule met; values meeting or exceeding it are tagged rule not met.

## Input For this molecule, is 1 Assay (20 uM) 4B3 lower than 40 ND ND ND ND? c1ccc(CCn2c3ccccc3c3nc4ccccc4nc32)cc1
## Output rule not met

## Input For this molecule, is 1 Assay (20 uM) 4B3 lower than 40 ND ND ND ND? CC(C)Cn1c2ccc(Br)cc2c2nc3ccccc3nc21
## Output rule met

## Input For this molecule, is 1 Assay (20 uM) 4B3 lower than 40 ND ND ND ND? CCCn1c2ccccc2c2nc3ccccc3nc21
## Output rule not met

## Input For this molecule, is 1 Assay (20 uM) 4B3 lower than 40 ND ND ND ND? CCCCn1c2ccccc2c2nc3ccccc3nc21
## Output rule met

## Input For this molecule, is 1 Assay (20 uM) 4B3 lower than 40 ND ND ND ND? CCc1ccc2c(c1)c1nc3ccccc3nc1n2CC
## Output rule met

## Input For this molecule, is 1 Assay (20 uM) 4B3 lower than 40 ND ND ND ND? CC(C)n1c2ccccc2c2nc3ccccc3nc21
## Output rule not met

## Input For this molecule, is 1 Assay (20 uM) 4B3 lower than 40 ND ND ND ND? C=Cn1c2ccccc2c2nc3ccccc3nc21
## Output rule not met

## Input For this molecule, is 1 Assay (20 uM) 4B3 lower than 40 ND ND ND ND? CC(C)Cn1c2ccccc2c2nc3ccccc3nc21
## Output rule not met

## Input For this molecule, is 1 Assay (20 uM) 4B3 lower than 40 ND ND ND ND? O=C(O)Cn1c2ccc(Cl)cc2c2nc3ccccc3nc21
## Output rule not met

---

measurementTarget: PDE7B (Homo sapiens)
Sequence (Q9NP56 whole entry, species assumed): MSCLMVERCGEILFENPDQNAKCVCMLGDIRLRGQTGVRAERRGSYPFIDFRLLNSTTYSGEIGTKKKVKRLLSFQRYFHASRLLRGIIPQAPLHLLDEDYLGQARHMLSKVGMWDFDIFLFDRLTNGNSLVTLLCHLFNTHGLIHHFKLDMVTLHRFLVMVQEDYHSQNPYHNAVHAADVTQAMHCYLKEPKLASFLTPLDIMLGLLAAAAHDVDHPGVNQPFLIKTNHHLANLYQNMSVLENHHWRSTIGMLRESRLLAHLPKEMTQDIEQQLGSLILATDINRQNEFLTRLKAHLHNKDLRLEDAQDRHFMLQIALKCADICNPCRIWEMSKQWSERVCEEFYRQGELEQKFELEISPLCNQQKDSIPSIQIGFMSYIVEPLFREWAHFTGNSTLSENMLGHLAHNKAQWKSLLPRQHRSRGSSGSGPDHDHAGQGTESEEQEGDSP
assayOverview: 5FOA growth assay in fission yeast strain expressing PDE7B
cond: OD600 0.6; read-out: ED50 for 5FOA growth assays, PDE7B
Experimental: PDE inhibition allows growth in 5FOA medium as measured by optical density after 48 hours incubation at 30° C. Compound BC12 and six structural analogs were tested for growth stimulation. Cells were pregrown in EMM medium [MP Biomedicals (Solon, Ohio), 3% glucose, filter-sterilized to avoid carmelization, which would introduce variability into the optical density of the medium] containing from 0 mM to 2.5 mM cAMP (or either 0.5 mM or 1.0 mM cGMP). […]
For each entry below, report its EC50 value.
# output: bare number, implied unit µM

## Input Find the measured EC50: item CCN(CC)c1ncnc2sc3c(c12)CCCC3 , target or system PDE7B (Homo sapiens).
## Output 2.1

## Input Find the measured EC50: item Cc1ccc([N+](=O)[O-])cc1S(=O)(=O)N(C)C [BRL50481, reference compound] , target or system PDE7B (Homo sapiens).
## Output 42

---

measurementTarget: PDE4B2 (Homo sapiens)
Sequence (Q07343 1-564 isoform Q07343-2, species assumed): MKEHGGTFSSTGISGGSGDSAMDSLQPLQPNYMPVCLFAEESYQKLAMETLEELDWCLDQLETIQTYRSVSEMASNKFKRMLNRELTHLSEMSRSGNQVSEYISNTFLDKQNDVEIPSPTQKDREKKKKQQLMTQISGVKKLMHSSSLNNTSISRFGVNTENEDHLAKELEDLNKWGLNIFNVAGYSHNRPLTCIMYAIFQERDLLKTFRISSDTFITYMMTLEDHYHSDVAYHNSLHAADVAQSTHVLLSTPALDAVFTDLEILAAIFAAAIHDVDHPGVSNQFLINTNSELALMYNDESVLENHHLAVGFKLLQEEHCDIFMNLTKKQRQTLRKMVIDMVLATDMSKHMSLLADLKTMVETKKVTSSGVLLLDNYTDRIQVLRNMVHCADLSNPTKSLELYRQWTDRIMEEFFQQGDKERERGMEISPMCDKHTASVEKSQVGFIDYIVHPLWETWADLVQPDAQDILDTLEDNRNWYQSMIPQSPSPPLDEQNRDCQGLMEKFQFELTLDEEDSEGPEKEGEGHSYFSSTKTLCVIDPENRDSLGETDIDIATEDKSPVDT
reportedProperty: IC50

## Input Form field: reported IC50 of N#Cc1sc2sc(C#N)c(-c3ccco3)c2c1N
## Output ~2000 nM

---

measurementTarget: PDE4D2-CAT (Homo sapiens, UniProt Q08499)
Construct: 86-413; made in house; host or cells: E. coli
Sequence (Q08499 388-715): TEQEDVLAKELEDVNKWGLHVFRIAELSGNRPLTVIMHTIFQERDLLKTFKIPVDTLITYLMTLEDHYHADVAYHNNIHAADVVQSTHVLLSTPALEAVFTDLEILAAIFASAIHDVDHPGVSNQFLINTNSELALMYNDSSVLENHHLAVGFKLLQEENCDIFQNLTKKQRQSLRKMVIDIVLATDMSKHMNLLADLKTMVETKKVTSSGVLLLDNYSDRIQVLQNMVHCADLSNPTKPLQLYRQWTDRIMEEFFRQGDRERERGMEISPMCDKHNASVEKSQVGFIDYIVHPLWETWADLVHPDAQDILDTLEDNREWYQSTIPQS
assayOverview: in vitro enzyme assay, catalytic fragment of PDE4D2 (residues 86-413)
Type: biochemical
cond: catalytic fragment; AC200 = [Compound] that doubles PDE activity; read-out: IC50 (or AC200), PDE4D2-CAT
pIC50: −log10 of the molar value.
For each entry below, report its pIC50 value.

## Input Find the measured pIC50: item Cc1c(C(=O)Nc2ccc(F)cc2F)sc2ncnc(N3CCC(C)CC3)c12 , target or system PDE4D2-CAT (Homo sapiens, UniProt Q08499).
## Output > 5.70

## Input Find the measured pIC50: item N#Cc1sc2sc(C#N)c(-c3ccco3)c2c1N , target or system PDE4D2-CAT (Homo sapiens, UniProt Q08499).
## Output > 7.00
